As a worked illustration, we turn to Ki data collected for Human Adrenal 3BHSD (Homo sapiens).

Would you please look over these solved cases?
SAMPLE SMILES: CC(C)(C)c1ccc(C(C)(C)C)c(NC(=O)[C@H]2CC[C@H]3[C@@H]4CC[C@H]5NC(=O)C=C[C@]5(C)[C@H]4CC[C@]23C)c1
TEST RESULT: 10 to 1000 nM
//
SAMPLE SMILES: C[C@]12C=CC(=O)N[C@@H]1CC[C@@H]1[C@@H]2CC[C@]2(C)[C@@H](C(=O)NC3(c4ccc5c(c4)OCO5)CCCCC3)CC[C@@H]12
TEST RESULT: 10 to 1000 nM

Shift focus to the following entry.
// fetch Ki; item: "CN1C(=O)CC[C@]2(C)[C@H]3CC[C@]4(C)[C@@H](C(=O)Nc5cc(C(F)(F)F)ccc5C(F)(F)F)CC[C@H]4[C@@H]3CC[C@@H]12" ; system: Human Adrenal 3BHSD (Homo sapiens)
Sequence (P26439 whole entry): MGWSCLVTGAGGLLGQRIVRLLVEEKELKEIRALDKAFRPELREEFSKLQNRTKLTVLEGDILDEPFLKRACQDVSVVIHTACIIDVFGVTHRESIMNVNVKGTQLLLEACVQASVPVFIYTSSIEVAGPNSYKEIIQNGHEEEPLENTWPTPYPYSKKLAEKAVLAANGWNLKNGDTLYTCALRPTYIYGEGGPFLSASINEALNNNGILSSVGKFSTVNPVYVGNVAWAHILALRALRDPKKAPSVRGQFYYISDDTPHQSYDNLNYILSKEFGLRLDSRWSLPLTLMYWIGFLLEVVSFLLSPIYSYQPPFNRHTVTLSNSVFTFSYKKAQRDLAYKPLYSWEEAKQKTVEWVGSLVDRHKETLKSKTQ
10 to 1000 nM

Values from patent US5998427A
